Molecular target: 5-hydroxytryptamine receptor 5A (Homo sapiens, UniProt P47898)
Sequence (P47898 whole entry): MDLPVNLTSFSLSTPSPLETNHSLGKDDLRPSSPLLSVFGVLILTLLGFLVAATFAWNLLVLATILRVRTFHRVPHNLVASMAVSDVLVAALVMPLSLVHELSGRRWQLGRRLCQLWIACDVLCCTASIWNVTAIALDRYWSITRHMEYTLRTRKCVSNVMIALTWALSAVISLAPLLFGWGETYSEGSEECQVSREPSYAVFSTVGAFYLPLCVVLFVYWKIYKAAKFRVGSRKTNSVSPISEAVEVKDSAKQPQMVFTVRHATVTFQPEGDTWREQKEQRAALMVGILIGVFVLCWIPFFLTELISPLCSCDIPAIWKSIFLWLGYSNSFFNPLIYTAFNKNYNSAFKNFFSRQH
Measurement Kind: Ki
Field note: include the unit after the figure.

Lab entry: 5-hydroxytryptamine receptor 5A (Homo sapiens, UniProt P47898) assay, compound O=C1c2ccccc2CCCN1CCN1CCC(n2c(=O)[nH]c3cc(F)ccc32)CC1 , Ki = 1480 nM

###

Molecular target: 5-hydroxytryptamine receptor 1A (Homo sapiens, UniProt P08908)
Sequence (P08908 whole entry): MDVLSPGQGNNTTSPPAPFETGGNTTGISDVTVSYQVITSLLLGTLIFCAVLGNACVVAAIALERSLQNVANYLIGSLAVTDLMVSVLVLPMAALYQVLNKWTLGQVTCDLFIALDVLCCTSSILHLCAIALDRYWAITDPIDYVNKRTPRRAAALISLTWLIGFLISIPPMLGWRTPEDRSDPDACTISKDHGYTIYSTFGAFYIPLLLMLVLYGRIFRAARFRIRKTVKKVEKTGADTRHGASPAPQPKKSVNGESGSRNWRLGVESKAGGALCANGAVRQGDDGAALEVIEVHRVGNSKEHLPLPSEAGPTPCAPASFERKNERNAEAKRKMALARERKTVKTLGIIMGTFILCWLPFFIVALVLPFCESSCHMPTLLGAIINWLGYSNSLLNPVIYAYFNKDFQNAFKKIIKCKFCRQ
Assay: Binding affinity towards 5-hydroxytryptamine 1A receptor in human using [3H]8-OH-DPAT as radioligand
Measurement Kind: Ki (nM)
API: value field is a number in nM; no unit string.

Quick note, Ki for O=C1c2ccccc2CCCN1CCN1CCC(n2c(=O)[nH]c3cc(F)ccc32)CC1 landed at 479

###

Target: Cytochrome P450 1A2 (Homo sapiens, UniProt P05177)
Sequence (P05177 whole entry): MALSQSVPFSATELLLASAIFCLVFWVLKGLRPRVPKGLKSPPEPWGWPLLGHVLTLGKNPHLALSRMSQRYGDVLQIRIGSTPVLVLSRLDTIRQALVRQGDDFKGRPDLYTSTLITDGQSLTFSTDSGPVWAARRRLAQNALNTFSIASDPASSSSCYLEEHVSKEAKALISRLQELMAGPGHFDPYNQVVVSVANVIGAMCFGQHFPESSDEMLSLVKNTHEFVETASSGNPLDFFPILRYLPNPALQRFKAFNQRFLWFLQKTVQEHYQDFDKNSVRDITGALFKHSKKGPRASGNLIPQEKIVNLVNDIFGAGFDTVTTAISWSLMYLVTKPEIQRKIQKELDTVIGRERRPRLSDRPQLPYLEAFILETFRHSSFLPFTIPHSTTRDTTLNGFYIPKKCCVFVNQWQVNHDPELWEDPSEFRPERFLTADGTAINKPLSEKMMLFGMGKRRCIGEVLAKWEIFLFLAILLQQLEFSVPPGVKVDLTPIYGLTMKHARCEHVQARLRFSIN
Measurement Kind: IC50 (µM)
Just the number please, in µM, no unit attached.

Lookup result for O=C1c2ccccc2CCCN1CCN1CCC(n2c(=O)[nH]c3cc(F)ccc32)CC1 ; measured IC50: 62

###

Molecular target: 5-hydroxytryptamine receptor 7 (Homo sapiens, UniProt P34969)
Sequence (P34969 whole entry): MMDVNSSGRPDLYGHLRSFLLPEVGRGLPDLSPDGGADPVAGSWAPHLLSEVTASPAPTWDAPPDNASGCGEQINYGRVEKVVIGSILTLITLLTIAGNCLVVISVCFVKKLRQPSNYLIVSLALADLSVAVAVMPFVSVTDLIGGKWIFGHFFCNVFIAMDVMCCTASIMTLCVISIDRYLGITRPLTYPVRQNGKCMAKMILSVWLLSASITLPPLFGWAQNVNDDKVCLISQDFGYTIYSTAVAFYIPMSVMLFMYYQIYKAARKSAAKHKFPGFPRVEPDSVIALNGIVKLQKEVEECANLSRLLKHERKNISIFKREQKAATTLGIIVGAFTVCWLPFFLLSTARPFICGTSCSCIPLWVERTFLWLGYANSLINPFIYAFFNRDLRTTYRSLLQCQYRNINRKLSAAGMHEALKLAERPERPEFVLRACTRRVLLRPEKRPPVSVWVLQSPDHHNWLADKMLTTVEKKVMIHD
Note to self: use fulfilled only for Ki readings below 4 nM; a reading exactly at 4 nM still gets not fulfilled.

Exam item: Find out if reported Ki for O=C1c2ccccc2CCCN1CCN1CCC(c2c[nH]c3ccccc23)CC1 is less than 4 nM
Marked response: fulfilled

Exam item: Consider O=C1c2ccccc2CCCN1CCN1CCC(n2ccc3ccccc32)CC1 . Does its Ki lie strictly below 4 nM?
Marked response: fulfilled

Exam item: Strictly below 4 nM: is that where Ki of O=C1c2ccccc2CCCN1CCN1CCC(Oc2ccc(F)cc2)CC1 sits?
Marked response: not fulfilled

Exam item: Below 4 nM on Ki? Entry O=C1c2ccccc2CCCN1CCN1CCC(n2c(=O)oc3cc(F)ccc32)CC1
Marked response: not fulfilled

Exam item: Record O=C(c1ccc(Cl)cc1)C1CCN(CCN2CCCc3ccccc3C2=O)CC1 : is its Ki strictly below 4 nM?
Marked response: fulfilled

Exam item: Does the reported Ki of O=C1c2ccccc2CCCC1CCN1CCC(Oc2ccccc2)CC1 (stereo unspecified) stay below 4 nM?
Marked response: not fulfilled

###

Target: 5-hydroxytryptamine receptor 2B (Homo sapiens)
Sequence (P41595 whole entry): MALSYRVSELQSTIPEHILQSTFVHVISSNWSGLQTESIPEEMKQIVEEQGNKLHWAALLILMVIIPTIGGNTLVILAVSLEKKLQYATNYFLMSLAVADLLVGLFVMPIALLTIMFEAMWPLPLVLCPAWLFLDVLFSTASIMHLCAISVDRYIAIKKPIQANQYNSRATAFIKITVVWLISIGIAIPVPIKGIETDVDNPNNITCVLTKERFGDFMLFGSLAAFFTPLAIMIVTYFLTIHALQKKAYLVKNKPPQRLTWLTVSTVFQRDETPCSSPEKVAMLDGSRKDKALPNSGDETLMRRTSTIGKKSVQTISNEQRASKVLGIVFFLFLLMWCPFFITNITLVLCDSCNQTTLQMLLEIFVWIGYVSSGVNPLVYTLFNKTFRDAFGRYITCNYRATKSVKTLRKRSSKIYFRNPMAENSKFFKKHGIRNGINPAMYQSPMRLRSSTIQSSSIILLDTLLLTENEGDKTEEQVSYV
Experiment: Binding affinity towards cloned human 5-hydroxytryptamine 2B receptor was determined
Measurement Kind: pKi
pKi here: minus log base 10 of the concentration, concentration in moles per litre.

pKi reported for this compound O=C1c2ccccc2CCCN1CCN1CCC(n2c(=O)[nH]c3cc(F)ccc32)CC1 : 6.00
